Entry source: patent US20250011316A1

- TGT: purified human PRX3 (Homo sapiens, UniProt P30048)
- Construct: made in house
- Sequence (P30048 62-256): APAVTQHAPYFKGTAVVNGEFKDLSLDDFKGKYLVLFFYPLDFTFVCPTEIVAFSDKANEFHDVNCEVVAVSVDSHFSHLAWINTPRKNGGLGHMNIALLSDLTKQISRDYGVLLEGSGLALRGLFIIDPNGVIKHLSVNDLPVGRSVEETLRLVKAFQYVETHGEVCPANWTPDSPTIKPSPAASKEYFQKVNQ
- RUN DESCRIPTION: Biochemical PRX3 Inhibition Assay (non-reducible crosslink by SDS PAGE + single adduct by MALDI-TOF MS)
- PROTOCOL CONDITIONS: 100 μM PRX3 with TRX2/thioredoxin reductase/NADPH system and hydrogen peroxide, 1-2 hr at 37° C.
- Protocol: The compounds described herein generally react with two essential cysteine residues in the mitochondrial peroxidase PRX3, leading to the formation of a non-reducible, covalent crosslink of two PRX3 monomers. This crosslink inactivates PRX3. […] To measure covalent adduct formation on a single PRX3 monomer, each reaction was exchanged into a mass spectrometry compatible buffer containing 40 mM ammonium citrate, pH 8.3 made in HPLC water. […] Spectra were analyzed in FLEXAnalysis Software. […]
MEASURE NAME: PRX3 Inhibition (Crosslink + Mono-adduct)

COMPOUND	OBSERVED VALUE
C=C(NC(=O)c1csc(N2CCC(C(=O)NCCNC(=O)OC(C)(C)C)CC2)n1)C(=O)NC(=C)C(=O)OC [Compound 15]	+++ (>90%)
C=C(NC(=O)c1csc(N2CCC(CNC(=O)CCCCCCl)CC2)n1)C(=O)NC(=C)C(=O)OC [Compound 40]	+++ (>90%)
C=C(NC(=O)c1csc(-c2ccc(NC(=O)CCCCCCl)cc2)n1)C(=O)NC(=C)C(=O)OC [Compound 48]	++ (50-90%)
C=C(NC(=O)c1csc(-c2ccc(CNC(=O)OC(C)(C)C)cc2)n1)C(=O)NC(=C)C(=O)OC [Compound 8]	+++ (>90%)
C=C(NC(=O)c1csc(N2CCC(NC(=O)COC)CC2)n1)C(=O)NC(=C)C(=O)OC [Compound 55]	++ (50-90%)

Prompt: Please state recorded PRX3 Inhibition (Crosslink + Mono-adduct) (tested on purified human PRX3 (Homo sapiens, UniProt P30048)) of C=C(NC(=O)c1csc(N2CCC(NC(=O)C3COCCO3)CC2)n1)C(=O)NC(=C)C(=O)OC (stereo not shown) [Compound 58]
Completion: +++ (>90%)
